Biological target: GSK3b (GST-full length GSK3b) (Homo sapiens (Human), UniProt P49841)
Sequence (P49841 whole entry): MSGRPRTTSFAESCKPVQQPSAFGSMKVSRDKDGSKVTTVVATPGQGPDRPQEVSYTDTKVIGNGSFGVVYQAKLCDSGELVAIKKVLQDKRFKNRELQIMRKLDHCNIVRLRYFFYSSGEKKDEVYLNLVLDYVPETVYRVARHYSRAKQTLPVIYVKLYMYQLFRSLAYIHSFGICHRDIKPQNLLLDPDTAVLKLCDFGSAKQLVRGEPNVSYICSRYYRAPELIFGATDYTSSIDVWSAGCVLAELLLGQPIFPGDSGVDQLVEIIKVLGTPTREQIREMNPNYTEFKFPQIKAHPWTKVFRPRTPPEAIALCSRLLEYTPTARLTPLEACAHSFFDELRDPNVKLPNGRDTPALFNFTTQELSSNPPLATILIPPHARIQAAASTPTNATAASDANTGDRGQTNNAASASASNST
Assay: GSK3b TR-FRET kinase assay
Type: biochemical
Settings: 1 nM GSK3b, 2 μM ATP, 30 minute preincubation; geometric mean; read-out: GSK3-B TR-FRET BIOCHEMICAL (TR-FRET); GMean; IC50
pIC50: −log10 of the molar value.
recorded endpoint: pIC50

CC[C@]1(c2cccc(-c3cn[nH]c3)c2)C2=C(CC(C)(C)NC2=O)Nc2n[nH]c(C(F)(F)F)c21    ≥ 7.00
CC[C@]1(c2cccc(-c3cnn4c3CCCC4)c2)C2=C(CC(C)(C)NC2=O)Nc2n[nH]cc21    6.00 to 7.00
CC[C@]1(c2ccccc2)C2=C(C[C@](C)(COC)CC2=O)Nc2n[nH]cc21    < 5.30

Consider the additional compound presented here.
Ask | Requested field: pIC50. Item: CC[C@@]1(c2cccc(-c3ccnn3C)c2)C2=C(C[C@@](C)(COC)NC2=O)Nc2n[nH]cc21
Reply | < 5.30

====

Target: GSK3b (GST-full length GSK3b) (Homo sapiens (Human))
Test: GSK3b TR-FRET kinase assay
Type: biochemical
Settings: 1 nM GSK3b, 2 μM ATP, 30 minute preincubation; read-out: GSK3-B TR-FRET BIOCHEMICAL (TR-FRET); IC50
recorded endpoint: IC50

Worked set:
CC(C)C(=O)N1CC2(C1)CC1(CO2)C2=C(CC(C)(C)CC2=O)Nc2n[nH]cc21 (stereo not shown) [Compound 947304]    100 to 1000 nM
CCC1(c2cccc(C(F)(F)F)c2)C2=C(CC(C)(C)N(C)C2=O)Nc2n[nH]cc21 (stereo not shown) [Compound 826790]    ≤ 100 nM
CC1(C)CC(=O)C2=C(C1)Nc1n[nH]cc1C21CCN(S(=O)(=O)c2cccc3c2OCCO3)CC1 [Compound 947464]    ≤ 100 nM

Consider the additional compound presented here.
Ask | Requested field: IC50. Item: CCC1(c2cccc(-c3ccnc(C)c3)c2)C2=C(CC(C)NC2=O)Nc2n[nH]cc21 (stereo not shown) [Compound 913357]
Reply | 1000 to 5000 nM

====

The reader will find reported IC50 values listed item by item below.
Molecular target: GSK3b (GST-full length GSK3b) (Homo sapiens (Human))
Assay: GSK3b TR-FRET kinase assay
Type: biochemical
Settings: 1 nM GSK3b, 2 μM ATP, 30 minute preincubation, Table 16; read-out: GSK3-B TR-FRET BIOCHEMICAL (TR-FRET)

Worked set:
CC(C)n1cc(S(=O)(=O)N2CCC3(CC2)C2=C(CC(C)(C)CC2=O)Nc2n[nH]cc23)cn1 [Compound 947607]    ≤ 100 nM
C[C@H]1C[C@@]2(CCO1)C1=C(CC(C)(C)CC1=O)Nc1n[nH]cc12 [Compound 899560]    1000 to 5000 nM
CC1(C)CC(=O)C2=C(C1)Nc1n[nH]cc1C21CCCN(CC(F)F)CC1 (stereo not shown) [Compound 889574]    100 to 1000 nM
CCC1(c2cccc(-c3ccnc(C)c3)c2)C2=C(Nc3n[nH]cc31)C(F)C(C)(C)CC2=O (stereo not shown) [Compound 946104]    100 to 1000 nM
CC1(C)CC(=O)C2=C(C1)Nc1n[nH]cc1[C@]21CC[C@@H](C(F)(F)F)C1 [Compound 952437]    100 to 1000 nM
CC[C@@]1(c2cccc(-c3ccnc4c3CCC4)c2)C2=C(CC(C)(C)CC2=O)Nc2n[nH]cc21 [Compound 945619]    > 5000 nM

Consider the additional compound presented here.
Ask | Requested field: IC50. Item: CCC1(c2cccc(-c3cc(C)nn3C)c2)C2=C(CC(C)(C)CC2=O)Nc2n[nH]c(C(F)(F)F)c21 (stereo not shown) [Compound 945532]
Reply | ≤ 100 nM
